# assay procedure: Antimicrobial residue concentration and depletion in muscle of treated pigs within the withdrawal period (LC-MS/MS or HPLC-FLD)
# Format: in vivo
# test parameters: hindquarter muscle, intramuscular; withdrawal period Day 3, pig; read-out: Concentration in Hindquarters
concentration at 3 day of withdrawal period values by entry
experimental endpoint: concentration at 3 day of withdrawal period (ng/g)

[[record]]
substance_smiles = "COc1ccc(NS(=O)(=O)c2ccc(N)cc2)nn1"
value_measured = 40.5

[[record]]
substance_smiles = "CCN1CCN(c2cc3c(cc2F)c(=O)c(C(=O)O)cn3C2CC2)CC1"
value_measured = 1080


* * *

# assay procedure: Antimicrobial residue concentration and depletion in muscle of treated pigs within the withdrawal period (LC-MS/MS or HPLC-FLD)
# Type: in vivo
# test parameters: loin muscle, intramuscular; withdrawal period Day 15, pig; read-out: Concentration in Loins
experimental endpoint: concentration at 15 day of withdrawal period

[[record]]
substance_smiles = "CN(C)[C@@H]1C(O)=C(C(N)=O)C(=O)[C@@]2(O)C(O)=C3C(=O)c4c(O)cccc4[C@@](C)(O)[C@H]3[C@H](O)[C@@H]12"
value_measured = "125 ng/g"


* * *

Recorded Minimum concentration value in Blood for the following molecules
# assay procedure: Antimicrobial residue concentration and depletion in blood (serum) of treated pigs within the withdrawal period (LC-MS/MS)
# Format: in vivo
# test parameters: over the sample bank of treated piglets
# Method: To obtain samples containing antimicrobial compounds administered in vivo, 93 piglets (62 female, 31 male) with an average weight of 43.00 ± 12.79 kg were provided at treatment onset. […] The day of slaughter was calculated from the first day after the last antimicrobial treatment dose. […] Analytes were detected using positive electrospray ionization (ESI+) in multiple reaction monitoring (MRM) mode, and two transitions were monitored for each compound of interest (Table S4). […]
experimental endpoint: Minimum concentration value in Blood (µg/kg)

[[record]]
substance_smiles = "COc1ccc(NS(=O)(=O)c2ccc(N)cc2)nn1"
value_measured = 23.67

[[record]]
substance_smiles = "CCN1CCN(c2cc3c(cc2F)c(=O)c(C(=O)O)cn3C2CC2)CC1"
value_measured = 21.67

[[record]]
substance_smiles = "CN(C)[C@@H]1C(O)=C(C(N)=O)C(=O)[C@@]2(O)C(O)=C3C(=O)c4c(O)cccc4[C@@](C)(O)[C@H]3[C@H](O)[C@@H]12"
value_measured = 24.00

[[record]]
substance_smiles = "CC1(C)S[C@@H]2[C@H](NC(=O)[C@H](N)c3ccc(O)cc3)C(=O)N2[C@H]1C(=O)O"
value_measured = 19.00


* * *

# assay procedure: Antimicrobial residue concentration and depletion in muscle of treated pigs within the withdrawal period (LC-MS/MS or HPLC-FLD)
# Type: in vivo
# test parameters: hindquarter muscle, intramuscular; withdrawal period Day 4, pig; read-out: Concentration in Hindquarters
# Method: To obtain samples containing antimicrobial compounds administered in vivo, 93 piglets (62 female, 31 male) with an average weight of 43.00 ± 12.79 kg were provided at treatment onset. […] The day of slaughter was calculated from the first day after the last antimicrobial treatment dose. […] Two ESI+ MRM transitions were monitored for each compound (Table S5). […] The rates of elimination (λz) of antibiotics from muscle and blood were determined by regression analysis. […]
experimental endpoint: concentration at 4 day of withdrawal period (ng/g)

[[record]]
substance_smiles = "CN(C)[C@@H]1C(O)=C(C(N)=O)C(=O)[C@@]2(O)C(O)=C3C(=O)c4c(O)cccc4[C@@](C)(O)[C@H]3[C@H](O)[C@@H]12"
value_measured = 1010


* * *

# assay procedure: Antimicrobial residue concentration and depletion in muscle of treated pigs within the withdrawal period (LC-MS/MS or HPLC-FLD)
# Type: in vivo
# test parameters: over the sample bank of treated piglets
experimental endpoint: Minimum concentration value in Muscle

[[record]]
compound = "CN(C)[C@@H]1C(O)=C(C(N)=O)C(=O)[C@@]2(O)C(O)=C3C(=O)c4c(O)cccc4[C@@](C)(O)[C@H]3[C@H](O)[C@@H]12 [Oxytetracycline, oxytetracycline]"
experimental_endpoint = "Minimum concentration value in Muscle"
value_measured = "31.33 ± 3.21 µg/kg"

[[record]]
compound = "CC1(C)S[C@@H]2[C@H](NC(=O)[C@H](N)c3ccc(O)cc3)C(=O)N2[C@H]1C(=O)O [Amoxicillin, amoxicillin]"
experimental_endpoint = "Minimum concentration value in Muscle"
value_measured = "13.33 ± 2.52 µg/kg"

[[record]]
compound = "COc1ccc(NS(=O)(=O)c2ccc(N)cc2)nn1 [Sulfamethoxypyridazine, sulfamethoxypyridazine]"
experimental_endpoint = "Minimum concentration value in Muscle"
value_measured = "14.00 ± 1.41 µg/kg"

[[record]]
compound = "CCN1CCN(c2cc3c(cc2F)c(=O)c(C(=O)O)cn3C2CC2)CC1 [Enrofloxacin, enrofloxacin]"
experimental_endpoint = "Minimum concentration value in Muscle"
value_measured = "18.00 ± 2.65 µg/kg"


* * *

# assay procedure: Antimicrobial residue concentration and depletion in muscle of treated pigs within the withdrawal period (LC-MS/MS or HPLC-FLD)
# Assay type: in vivo
# test parameters: forequarter muscle, intramuscular; withdrawal period Day 3, pig; read-out: Concentration in Forequarters
experimental endpoint: concentration at 3 day of withdrawal period (ng/g)

[[record]]
compound = "COc1ccc(NS(=O)(=O)c2ccc(N)cc2)nn1 [Sulfamethoxypyridazine, sulfamethoxypyridazine]"
readout_unit = "ng/g"
value_measured = 43

[[record]]
compound = "CCN1CCN(c2cc3c(cc2F)c(=O)c(C(=O)O)cn3C2CC2)CC1 [Enrofloxacin, enrofloxacin]"
readout_unit = "ng/g"
value_measured = 990


* * *

# assay procedure: Antimicrobial residue concentration and depletion in muscle of treated pigs within the withdrawal period (LC-MS/MS or HPLC-FLD)
# Format: in vivo
# test parameters: over the sample bank of treated piglets
experimental endpoint: Maximum concentration value in Muscle (µg/kg)

[[record]]
substance_smiles = "CN(C)[C@@H]1C(O)=C(C(N)=O)C(=O)[C@@]2(O)C(O)=C3C(=O)c4c(O)cccc4[C@@](C)(O)[C@H]3[C@H](O)[C@@H]12"
experimental_endpoint = "Maximum concentration value in Muscle"
value_measured = 1005.33

[[record]]
substance_smiles = "CCN1CCN(c2cc3c(cc2F)c(=O)c(C(=O)O)cn3C2CC2)CC1"
experimental_endpoint = "Maximum concentration value in Muscle"
value_measured = 1858.00

[[record]]
substance_smiles = "CC1(C)S[C@@H]2[C@H](NC(=O)[C@H](N)c3ccc(O)cc3)C(=O)N2[C@H]1C(=O)O"
experimental_endpoint = "Maximum concentration value in Muscle"
value_measured = 307.00

[[record]]
substance_smiles = "COc1ccc(NS(=O)(=O)c2ccc(N)cc2)nn1"
experimental_endpoint = "Maximum concentration value in Muscle"
value_measured = 1179.67


* * *

# assay procedure: Antimicrobial residue concentration and depletion in muscle of treated pigs within the withdrawal period (LC-MS/MS or HPLC-FLD)
# Assay type: in vivo
# test parameters: forequarter muscle, intramuscular; withdrawal period Day 15, pig; read-out: Concentration in Forequarters
experimental endpoint: concentration at 15 day of withdrawal period (ng/g)

[[record]]
molecule = "CN(C)[C@@H]1C(O)=C(C(N)=O)C(=O)[C@@]2(O)C(O)=C3C(=O)c4c(O)cccc4[C@@](C)(O)[C@H]3[C@H](O)[C@@H]12 [Oxytetracycline, oxytetracycline]"
value_measured = 99.7


* * *

# assay procedure: Antimicrobial residue concentration and depletion in muscle of treated pigs within the withdrawal period (LC-MS/MS or HPLC-FLD)
# Format: in vivo
# test parameters: both sexes, intramuscular; pig muscle, T1/2=Ln(2)/λz; read-out: T1/2 half-life of elimination (MUSCLE) (converted)
# Protocol: To obtain samples containing antimicrobial compounds administered in vivo, 93 piglets (62 female, 31 male) with an average weight of 43.00 ± 12.79 kg were provided at treatment onset. […] The day of slaughter was calculated from the first day after the last antimicrobial treatment dose. […] Two ESI+ MRM transitions were monitored for each compound (Table S5). […] The rates of elimination (λz) of antibiotics from muscle and blood were determined by regression analysis. […]
experimental endpoint: half-life (h)

[[record]]
substance_smiles = "CCN1CCN(c2cc3c(cc2F)c(=O)c(C(=O)O)cn3C2CC2)CC1"
experimental_endpoint = "half-life"
value_measured = 22.1

[[record]]
substance_smiles = "CN(C)[C@@H]1C(O)=C(C(N)=O)C(=O)[C@@]2(O)C(O)=C3C(=O)c4c(O)cccc4[C@@](C)(O)[C@H]3[C@H](O)[C@@H]12"
experimental_endpoint = "half-life"
value_measured = 82.3

[[record]]
substance_smiles = "COc1ccc(NS(=O)(=O)c2ccc(N)cc2)nn1"
experimental_endpoint = "half-life"
value_measured = 13.2


* * *

# assay procedure: Antimicrobial residue concentration and depletion in muscle of treated pigs within the withdrawal period (LC-MS/MS or HPLC-FLD)
# Type: in vivo
# test parameters: loin muscle, intramuscular; withdrawal period Day 3, pig; read-out: Concentration in Loins
Form field: concentration at 3 day of withdrawal period (one value per entry).
experimental endpoint: concentration at 3 day of withdrawal period (ng/g)

[[record]]
substance_smiles = "COc1ccc(NS(=O)(=O)c2ccc(N)cc2)nn1"
readout_unit = "ng/g"
value_measured = 49.5

[[record]]
substance_smiles = "CCN1CCN(c2cc3c(cc2F)c(=O)c(C(=O)O)cn3C2CC2)CC1"
readout_unit = "ng/g"
value_measured = 1060

